// data source = ChEMBL document CHEMBL4321803

- test-details: Inhibition of Aeromonas hydrophila class B2 metallo beta-lactamse CphA assessed as reduction in meropenem hydrolysis after 10 mins by UV absorbance method
measurement-type: IC50 (µM)
Report only the number, with the unit µM understood.

# get_value(readout='IC50', item= NCCN[C@H]1CC[C@H](CC(=O)N[C@H]2Cc3cccc(C(=O)O)c3OB2O)CC1 )
2.51

Likewise for O=C(O)C[C@@H]1CC[C@H](NC(=O)Cc2cccs2)B(O)O1 [VABORBACTAM] ?
631

====

- test-details: Inhibition of bacterial class D serine beta-lactamase OXA-10 assessed as reduction in breakdown of cephalosporin FC-5 in presence of aqueous sodium bicarbonate after 10 mins by fluorescence method
- Set-up: species or system Bacteria
measurement-type: IC50 (nM)
Numbers only; they are read as nM.

Find the recorded IC50 belonging to NCCN[C@H]1CC[C@H](CC(=O)N[C@H]2Cc3cccc(C(=O)O)c3OB2O)CC1 and report it.
645

====

Record form. Attribute: pIC50. Fill in for each entry.
- test-details: Inhibition of bacterial class B1 metallo beta-lactamase IMP-1 assessed as reduction in breakdown of cephalosporin FC-5 after 10 mins by fluorescence method
- Design: species or system Bacteria
Units for pIC50: none; it is -log10 of a concentration expressed in mol/L.

// pIC50 lookup, key: NCCN[C@H]1CC[C@H](CC(=O)N[C@H]2Cc3cccc(C(=O)O)c3OB2O)CC1
5.60

Next molecule: O=C(O)C[C@@H]1CC[C@H](NC(=O)Cc2cccs2)B(O)O1
3.90

====

- target-of-assay: Beta-lactamase OXA-10 (Pseudomonas aeruginosa)
- Sequence (P14489 whole entry): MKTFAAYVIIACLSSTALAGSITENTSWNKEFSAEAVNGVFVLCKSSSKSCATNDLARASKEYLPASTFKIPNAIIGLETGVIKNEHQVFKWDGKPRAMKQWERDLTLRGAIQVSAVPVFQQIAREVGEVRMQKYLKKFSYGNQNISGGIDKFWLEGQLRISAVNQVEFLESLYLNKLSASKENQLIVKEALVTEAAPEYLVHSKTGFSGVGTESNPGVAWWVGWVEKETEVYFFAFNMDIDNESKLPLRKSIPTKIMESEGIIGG
- test-details: Inhibition of Pseudomonas aeruginosa class D serine beta-lactamase OXA-10 expressed in Escherichia coli BL21(DE3) cells assessed as reduction in breakdown of cephalosporin FC-5 in presence of aqueous sodium bicarbonate after 10 to 300 mins by fluorescence method
measurement-type: IC50 (µM)
Record the value in µM, omitting the unit from your answer.

Could you share what IC50 was measured for NCc1ccc(C(=O)N[C@H]2Cc3cccc(C(=O)O)c3OB2O)cc1 , tested on Beta-lactamase OXA-10 (Pseudomonas aeruginosa)?
5.1

====

- test-details: Inhibition of bacterial class D serine beta-lactamase OXA-10 assessed as reduction in breakdown of cephalosporin FC-5 after 10 mins by fluorescence method
- Design: species or system Bacteria
measurement-type: IC50 (nM)
Expressed in nM, but write only the number.

# input compound: NCCN[C@H]1CC[C@H](CC(=O)N[C@H]2Cc3cccc(C(=O)O)c3OB2O)CC1 ; wanted: its IC50
234

====

- test-details: Inhibition of bacterial class D serine beta-lactamase OXA-48 assessed as reduction in breakdown of cephalosporin FC-5 in presence of aqueous sodium bicarbonate after 10 mins by fluorescence method
- Set-up: species or system Bacteria
Please respond with reported IC50 for every item in the list.
// units = µM; emit number, no label

What IC50 value was documented for this compound, O=C(O)C[C@@H]1CC[C@H](NC(=O)Cc2cccs2)B(O)O1 [VABORBACTAM] ?
32

Note, next up: NCCN[C@H]1CC[C@H](CC(=O)N[C@H]2Cc3cccc(C(=O)O)c3OB2O)CC1
2.39

====

- test-details: Inhibition of bacterial class D serine beta-lactamase OXA-48 assessed as reduction in breakdown of cephalosporin FC-5 after 10 mins by fluorescence method
- Set-up: species or system Bacteria
measurement-type: pIC50
Worth noting: pIC50 values are minus log10 of concentrations stated in mol/L.

Tell me the measured pIC50 of NCCN[C@H]1CC[C@H](CC(=O)N[C@H]2Cc3cccc(C(=O)O)c3OB2O)CC1 , please.
6.27
